tested on: P. vulgatus WT; experiment: growth AUC normalised to DMSO control (median) (fraction of control); higher = less growth inhibition, active = hit call of the paper; conditions: 20 µM
Structures can show the parent of a compound that is named as a salt.
Field: growth AUC normalised to DMSO control. Provide a value for each of the compounds that follow.
Numbers only.

INSERT INTO assay_data (compound, observed_value) VALUES
  ('Nc1nc(NC2CC2)c2ncn([C@H]3C=C[C@@H](CO)C3)c2n1 [Abacavir sulfate]', 1.01),
  ('C[C@H](CCC(=O)O)[C@H]1CC[C@H]2[C@@H]3C(=O)C[C@@H]4CC(=O)CC[C@]4(C)[C@H]3CC(=O)[C@]12C [Dehydrocholic acid]', 0.983),
  ('COc1ccc(C2C(=O)c3ccccc3C2=O)cc1 [Anisindione]', 1),
  ('O=C(CCCCCCC(=O)Nc1ccccc1)NO [Vorinostat]', 1.06);

Consider now this further compound.
Field growth AUC normalised to DMSO control (entry Cc1[nH]c(=O)c(C#N)cc1-c1ccncc1 [Milrinone] ) reads 0.995

----------
test system: Vibrio cholerae; test: growth AUC normalised to DMSO control (fraction of control); higher = less growth inhibition, active = hit call of the paper; details: 20 µM
Where a name gives a salt, the structure may show the parent alone.
Measured property: growth AUC normalised to DMSO control
Numbers only.

INSERT INTO assay_data (compound, observed_value) VALUES
  ('CCOC(=O)OC(C)OC(=O)[C@@H]1N2C(=O)[C@@H](NC(=O)[C@H](N)c3ccccc3)[C@H]2SC1(C)C (stereo partly specified) [Bacampicillin hydrochloride]', 1),
  ('CCC(NC(C)C)C(O)c1ccc(O)c(O)c1 (stereo unspecified) [Isoetharine mesylate salt]', 0.995),
  ('Cc1cc(C(C)(C)C)c(O)c(C)c1CC1=NCCN1 [Oxymetazoline hydrochloride]', 1),
  ('COc1ccc(C(Cl)=C(c2ccc(OC)cc2)c2ccc(OC)cc2)cc1 [Chlorotrianisene]', 0.983),
  ('Cc1ccccc1C(OCCN(C)C)c1ccccc1 (stereo unspecified) [Orphenadrine hydrochloride]', 1.02);

// each listed compound needs a value for growth AUC normalised to DMSO control
1. O=C(c1ccc(OCCN2CCCCC2)cc1)c1c(-c2ccc(O)cc2)sc2cc(O)ccc12 [Raloxifene hydrochloride]
2. Nc1nc2c(ncn2COC(CO)CO)c(=O)[nH]1 [Ganciclovir]
3. CN(C)CCN(Cc1ccccc1)c1ccccn1 [Tripelennamine hydrochloride]
4. Cc1c(NC(=O)c2cccnc2)c(=O)n(-c2ccccc2)n1C [Nifenazone]
5. COC(=O)Nc1nc2ccc(SC(C)C)cc2[nH]1 [Methiazole]
6. Cc1cc(C)nc(NS(=O)(=O)c2ccc(N)cc2)n1 [Sulfamethazine sodium salt]
7. C[C@@H](O)[C@H]1C(=O)N2C(C(=O)O)=C(SCCNC=N)C[C@H]12 [Imipenem]

Completion:
[0.988, 1, 1.01, 1.01, 0.999, 0.982, 1]

----------
Field: growth AUC normalised to DMSO control. Provide a value for each of the molecules that follow.
system: P. vulgatus RND KO; assay: growth AUC normalised to DMSO control (median) (fraction of control); higher = less growth inhibition, active = hit call of the paper; settings: 20 µM
Counter-ions that a name gives are not always drawn.

These solved cases illustrate the format of a correct answer.
INSERT INTO assay_data (molecule, measured_property, observed_value) VALUES
  ('CCn1cc(C(=O)O)c(=O)c2cc(F)c(N3CCNC(C)C3)c(F)c21 (stereo not drawn) [Lomefloxacin hydrochloride]', 'growth AUC normalised to DMSO control', '0.035 (active)'),
  ('CC(=O)Nc1ccc(OCC(O)CNC(C)C)cc1 (stereo not drawn) [Practolol]', 'growth AUC normalised to DMSO control', '1.02 (inactive)');

Consider now this further molecule.
Field growth AUC normalised to DMSO control (entry O=C(O)c1cc(=O)c2c(OCC(O)COc3cccc4oc(C(=O)O)cc(=O)c34)cccc2o1 [Cromolyn disodium salt] ) reads 1.03 (inactive)

----------
system: Yersinia pseudotuberculosis; experiment: growth AUC normalised to DMSO control (fraction of control); higher = less growth inhibition, active = hit call of the paper; conditions: 20 µM
Structures can show the parent of a compound that is named as a salt.
Measured property: growth AUC normalised to DMSO control
Give bare numbers.

INSERT INTO measurements (molecule, system, observed_value) VALUES
  ('CCn1cc(C(=O)O)c(=O)c2ccc(C)nc21 [Nalidixic acid sodium salt]', 'Yersinia pseudotuberculosis', 0.052),
  ('CC(C)NCC(O)c1ccc2ccccc2c1 (centres undefined) [Pronethalol hydrochloride]', 'Yersinia pseudotuberculosis', 0.982),
  ('CCCCOc1ccc(C(=O)CCN2CCCCC2)cc1 [Dyclonine hydrochloride]', 'Yersinia pseudotuberculosis', 0.979);

// each listed molecule needs a value for growth AUC normalised to DMSO control
1. CN(C)CC/C=C1/c2ccccc2COc2ccc(CC(=O)O)cc21 [Olopatadine hydrochloride]
2. CCC1=C(C)CN(C(=O)NCCc2ccc(S(=O)(=O)NC(=O)N[C@H]3CC[C@H](C)CC3)cc2)C1=O [Glimepiride]
3. S=c1[nH]cnc2nc[nH]c12
4. CNCC(O)c1ccc(OC(=O)C(C)(C)C)c(OC(=O)C(C)(C)C)c1 (centres undefined) [Dipivefrin hydrochloride]
5. O=C(O)c1cccnc1Nc1cccc(C(F)(F)F)c1
6. CC(=O)OCC(=O)[C@@]1(O)CC[C@H]2[C@@H]3CCC4=CC(=O)CC[C@]4(C)[C@H]3[C@@H](O)C[C@@]21C [Cortisol acetate]

Completion:
1. 1.02
2. 1.01
3. 0.987
4. 1.01
5. 1.01
6. 1

----------
system: P. vulgatus WT; test: growth AUC normalised to DMSO control (median) (fraction of control); higher = less growth inhibition, active = hit call of the paper; details: 20 µM
Counter-ions that a name gives are not always drawn.
Use one of these outcomes when replying: 1 (yes) for active, 0 (no) for inactive

The following molecules have reported results that may help.
INSERT INTO measurements (molecule, system, assigned_class) VALUES
  ('CC(C)(C)NC(=O)[C@@H]1C[C@@H]2CCCC[C@@H]2CN1C[C@@H](O)[C@H](Cc1ccccc1)NC(=O)[C@H](CC(N)=O)NC(=O)c1ccc2ccccc2n1 [Saquinavir mesylate]', 'P. vulgatus WT', '0 (no)'),
  ('CCCc1cc(C(N)=S)ccn1 [Prothionamide]', 'P. vulgatus WT', '0 (no)'),
  ('O=C(c1ccccc1)c1ccc2n1CCC2C(=O)O (stereo not given)', 'P. vulgatus WT', '0 (no)'),
  ('CC(=O)Oc1cccc2c1C(=O)c1c(OC(C)=O)cc(C(=O)O)cc1C2=O', 'P. vulgatus WT', '0 (no)'),
  ('CC(C)(C)NC[C@H](O)COc1nsnc1N1CCOCC1 [Timolol maleate salt]', 'P. vulgatus WT', '0 (no)'),
  ('CC1(C)O[C@@H]2C[C@H]3[C@@H]4C[C@H](F)C5=CC(=O)CC[C@]5(C)[C@H]4[C@@H](O)C[C@]3(C)[C@]2(C(=O)CO)O1 [Flurandrenolide]', 'P. vulgatus WT', '0 (no)');

Prompt: // return assay outcome for CNCC(O)c1ccc(O)c(O)c1 (stereo not given) [Racepinephrine hydrochloride]
Completion: 0 (no)

Prompt: // return assay outcome for CC(=O)CC(c1ccc([N+](=O)[O-])cc1)c1c(O)c2ccccc2oc1=O (stereo not given)
Completion: 0 (no)

Prompt: // return assay outcome for "CC#CCn1c(N2CCC[C@@H](N)C2)nc2c1c(=O)n(Cc1nc(C)c3ccccc3n1)c(=O)n2C"
Completion: 0 (no)

Prompt: // return assay outcome for CC[N+]1(CC)CCC(=C(c2ccccc2)c2ccccc2)C1C (stereo not given) [Prifinium Bromide]
Completion: 0 (no)

Prompt: // return assay outcome for "CC(C)(Oc1ccc(Cl)cc1)C(=O)O"
Completion: 0 (no)

----------
system: P. vulgatus RND KO; experiment: growth AUC normalised to DMSO control (median) (fraction of control); higher = less growth inhibition, active = hit call of the paper; settings: 20 µM
Counter-ions that a name gives are not always drawn.
Measured property: growth AUC normalised to DMSO control
Numbers only.

These solved cases illustrate the format of a correct answer.
INSERT INTO results (molecule, observed_value) VALUES
  ('Nc1nnc(-c2cccc(Cl)c2Cl)c(N)n1 [Lamotrigine]', 0.95),
  ('CCC(=O)O[C@]1(C(=O)CCl)[C@@H](C)C[C@H]2[C@@H]3CCC4=CC(=O)C=C[C@]4(C)[C@@]3(F)[C@@H](O)C[C@@]21C [Clobetasol propionate]', 1.02),
  ('COc1cnc(NS(=O)(=O)c2ccc(N)cc2)nc1 [Sulfameter]', 0.992),
  ('CCOC(=O)C1=C(C)NC(C)=C(C(=O)OC)C1c1cccc([N+](=O)[O-])c1 (centres undefined) [Nitrendipine]', 1.09);

// each listed molecule needs a value for growth AUC normalised to DMSO control
1. CN(C)CCCC1(c2ccc(F)cc2)OCc2cc(C#N)ccc21 (centres undefined) [Citalopram hydrobromide]
2. CN1CCN(C2Cc3ccccc3Sc3ccc(Cl)cc32)CC1 (centres undefined) [Octoclothepin maleate salt]
3. CN(C)CCN(Cc1ccccc1)c1ccccn1 [Tripelennamine hydrochloride]
4. CC[C@H](C)[C@H](N)C1=N[C@H](C(=O)N[C@@H](CC(C)C)C(=O)N[C@H](CCC(=O)O)C(=O)N[C@H](C(=O)N[C@H]2CCCCNC(=O)[C@H](CC(N)=O)NC(=O)[C@@H](CC(=O)O)NC(=O)[C@H](Cc3cnc[nH]3)NC(=O)[C@@H](Cc3ccccc3)NC(=O)[C@H]([C@@H](C)CC)NC(=O)[C@@H](CCCN)NC2=O)[C@@H](C)CC)CS1 [Bacitracin]
5. O=C1c2cccc3c2[C@H](CCC3)CN1[C@@H]1CN2CCC1CC2 [Palonosetron hydrochloride]

Completion:
[1.02, 1.05, 0.982, 0.137, 0.973]

// each listed molecule needs a value for growth AUC normalised to DMSO control
1. CC(C)Cc1ccc(C(C)C(=O)OCc2ccccn2)cc1 (centres undefined) [Ibuprofen Piconol]
2. CCCN(CCC)C(=O)C(CCC(=O)O)NC(=O)c1ccccc1 (centres undefined) [Proglumide]
3. NS(=O)(=O)c1cc(C(=O)O)cc(N2CCCC2)c1Oc1ccccc1 [Piretanide]
4. CCOC(=O)c1ccc(C#Cc2ccc3c(c2)C(C)(C)CCS3)nc1 [Tazarotene]
5. NC(=O)N/N=C/c1ccc([N+](=O)[O-])o1 [Nitrofural]
6. Clc1ccc(COC(Cn2ccnc2)c2ccc(Cl)cc2Cl)c(Cl)c1 (centres undefined) [Miconazole]

Completion:
1. 1
2. 1.02
3. 1.06
4. 0.993
5. 0.0943
6. 0.938

// each listed molecule needs a value for growth AUC normalised to DMSO control
1. Cc1c(NC(=O)c2cccnc2)c(=O)n(-c2ccccc2)n1C [Nifenazone]
2. CC(C)C(=O)c1c(C(C)C)nn2ccccc12 [Ibudilast]
3. COc1ccccc1OCC(O)CN1CCN(CC(=O)Nc2c(C)cccc2C)CC1 (centres undefined) [Ranolazine]
4. CSc1ccc2c(c1)N(CCC1CCCCN1C)c1ccccc1S2 (centres undefined) [Thioridazine hydrochloride]

Completion:
1. 0.997
2. 0.949
3. 0.994
4. 0.88
